Molecular target: Prothrombin (Homo sapiens)
Test: human alpha-thrombin inhibitors, primary screen, counter-screen for coagulation protease inhibitor project, biochemical, 1536-well, fluorogenic AMC substrate (AID 1046)
Details: Boc-VPR-AMC fluorogenic substrate cleavage, at 5 µM
Hit rate of the full screen: of about 220,000 compounds, about 560 (0.25%) were called active.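 The calls were made as follows: active = inhibition at or above 40%; inactive = inhibition below 40%.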 The list comes from a sample in which actives are over-represented; it also holds close analogues and randomly drawn compounds.
Select the matching outcome among t (active), f (inactive)

The examples below pair each entry with its known result.
>  <compound>
Cc1cc(CO)nn1-c1ccc([N+](=O)[O-])cc1

>  <discreteLabel>
f

$$$$
>  <compound>
O=C(Nc1nsc(-c2ccccc2)n1)c1ccncc1

>  <discreteLabel>
f

$$$$
>  <compound>
Cc1nc(N2CCCC2C(=O)O)c2oc3ccccc3c2n1 (stereo not given)

>  <discreteLabel>
f

$$$$
>  <compound>
CN(Cc1ccccn1)Cc1nc(-c2ccc(Cl)cc2)no1

>  <discreteLabel>
t

$$$$
>  <compound>
CC(C)(C)NC(=O)c1cccc(NC(=O)Cc2ccc(Br)cc2)c1

>  <discreteLabel>
f

$$$$

In the following, a different compound is considered.
What did the test return for Cc1ccccc1CC1(CO)CCCN(C(=O)c2cc(-c3ccccc3)no2)C1 (stereo not given) ? f
